Recorded values, source the supplement of paper PMC10724198.

Answer each item with its documented protein stability index.
- Test system: Saccharomyces cerevisiae
- Assay Name: protein stability index of tFT-peptide fusion (C-terminal peptide) (PSI (0-1 scale)); higher = more stable (slower turnover)
- Experimental Context: genetic background: das1 deletion; temperature: 30 C
Answers are plain numbers.

primary_sequence=FVVVGLGLLCLA system_under_test="Saccharomyces cerevisiae" readout_number=0.362

Go through the list and state protein stability index for each entry.
1. YPFSLVLGVFAF
2. VVVFRWTCWLLV
3. SVFSFCLCVGVV
4. AWPGRLWYFWLA
5. SSLAKFQLISTY

Result:
1. 0.298
2. 0.0835
3. 0.266
4. 0.637
5. 0.316

====

- System: Saccharomyces cerevisiae
- Assay Name: protein stability index of tFT-peptide fusion (C-terminal peptide) (PSI (0-1 scale)); higher = more stable (slower turnover)
- Experimental Context: genetic background: cdc53-1; temperature: 37 C
Answer each item with its documented protein stability index.

# example entries with known answers
primary_sequence=NYFRPWLIFHKC observation_type="protein stability index" result=0.749
primary_sequence=SVFWCFHVLFWS observation_type="protein stability index" result=0.497
primary_sequence=ISAVLFFLYLSF observation_type="protein stability index" result=0.108
primary_sequence=IPGGRPLLVEVR observation_type="protein stability index" result=0.384

Go through the list and state protein stability index for each entry.
1. VFFFNALFCFFC
2. VDVWRWRGLRVG
3. LFVSLSFVVFLP
4. VICSLFRYIMRL
5. VFSLFLVLNYPF

Result:
1. 0.51
2. 0.737
3. 0.381
4. 0.518
5. 0.296

Go through the list and state protein stability index for each entry.
1. YPFSLVLGVFAF
2. VCVWVDILAFCS
3. VPGCLGRFLFFL
4. KKIKKYTRKLKI

Result:
[0.389, 0.245, 0.699, 0.765]

Go through the list and state protein stability index for each entry.
1. LWAPFWVSRVTA
2. VRTFAVSCLCVC

Result:
1: 0.513; 2: 0.139

Go through the list and state protein stability index for each entry.
1. SELLVHVVFWLA
2. VVFVRLGWMRAC
3. ALFISLAIWNWS
4. LPLSPPPLPSSR
5. VSLHVFVFLLAS
6. GWVVVVCGVCCG
7. GFGDKVPWRWVI

Result:
1. 0.438
2. 0.52
3. 0.154
4. 0.726
5. 0.347
6. 0.22
7. 0.759

Go through the list and state protein stability index for each entry.
1. GVSLRVFVVSVC
2. VGIFKVCALVLR
3. AFRFLAVCVGCG
4. YFTNCYRSILTF

Result:
1. 0.162
2. 0.296
3. 0.158
4. 0.487

Go through the list and state protein stability index for each entry.
1. APLSPLLPPFLC
2. TLPIWLRVLIFG
3. TEHIIAFKASVN
4. LCCTLFFCYSYH
5. RSFSKRSFMFLC
6. FVVVGLGLLCLA

Result:
[0.729, 0.342, 0.728, 0.547, 0.728, 0.565]

Go through the list and state protein stability index for each entry.
1. PWEYSSQLVLVI
2. DKVTLLRRCKQY
3. NLFVFLSYLFNV
4. FCSLLVLLFFGV
5. SFCSFVFVTFVL
6. LLMCCLPFLWVF

Result:
1: 0.0865; 2: 0.726; 3: 0.66; 4: 0.479; 5: 0.484; 6: 0.432

Go through the list and state protein stability index for each entry.
1. FSFFLYFFLLLF
2. GSLFANYNLKLF
3. YLFLPGGEVSVH

Result:
1: 0.304; 2: 0.724; 3: 0.653

====

- Tested on: Saccharomyces cerevisiae
- Assay Name: protein stability index of tFT-peptide fusion (C-terminal peptide) (PSI (0-1 scale)); higher = more stable (slower turnover)
- Experimental Context: genetic background: wild type; temperature: 30 C
Observation Type: protein stability index
Numbers only.

primary_sequence=RPSPVLRASHPP observation_type="protein stability index" readout_number=0.638

Go through the list and state protein stability index for each entry.
1. SSPIRPFLPPGY
2. PLPPPPRLRCSS
3. AFYGDNNTVERM
4. SINKLLILIKSI

Result:
1: 0.671; 2: 0.649; 3: 0.762; 4: 0.13

====

- System: Saccharomyces cerevisiae
- Assay Name: protein stability index of tFT-peptide fusion (C-terminal peptide) (PSI (0-1 scale)); higher = more stable (slower turnover)
- Experimental Context: genetic background: wild type; temperature: 30 C
Observation Type: protein stability index
Numbers only.

# example entries with known answers
primary_sequence=VRHPVVVVRRVI system_under_test="Saccharomyces cerevisiae" readout_number=0.508
primary_sequence=CALWHLLPVNLH system_under_test="Saccharomyces cerevisiae" readout_number=0.645
primary_sequence=FLLVGLLIVGCG system_under_test="Saccharomyces cerevisiae" readout_number=0.225
primary_sequence=GAKAARTTITSG system_under_test="Saccharomyces cerevisiae" readout_number=0.653

Go through the list and state protein stability index for each entry.
1. LVGGGEGWVVLG
2. VPPRPAPRLRPP

Result:
0.651
0.695

====

- Test system: Saccharomyces cerevisiae
- Assay Name: protein stability index of tFT-peptide fusion (C-terminal peptide) (PSI (0-1 scale)); higher = more stable (slower turnover)
- Experimental Context: genetic background: cdc34-1; temperature: 37 C
Please use the following protein stability index ranges when assigning a class: low: < 0.4; moderate: ≥ 0.4 and < 0.5; high: ≥ 0.5

Past entries and their recorded results:
primary_sequence=EGGGGRFWVCVG class_assignment=high
primary_sequence=AMRTIFFPAFVS class_assignment=high
primary_sequence=TLWWRQPFWGFG class_assignment=high

Lab note: next sequence to report on.
Q: Assign a bin to KIKQIKINNKIN
Result: moderate

====

Answer each item with its documented protein stability index.
- System: Saccharomyces cerevisiae
- Assay Name: protein stability index of tFT-peptide fusion (C-terminal peptide) (PSI (0-1 scale)); higher = more stable (slower turnover)
- Experimental Context: genetic background: wild type; temperature: 30 C
Give bare numbers.

# example entries with known answers
primary_sequence="VDALQIQYNRRP [SCD5 C-terminal 12 aa]" system_under_test="Saccharomyces cerevisiae" readout_number=0.692
primary_sequence="GASAEDNTHPDE [NAB6 C-terminal 12 aa]" system_under_test="Saccharomyces cerevisiae" readout_number=0.681
primary_sequence="PNFGFLILNSEP [YAL064W C-terminal 12 aa]" system_under_test="Saccharomyces cerevisiae" readout_number=0.68
primary_sequence="SSLSFLSSFVDI [VAM10 C-terminal 12 aa]" system_under_test="Saccharomyces cerevisiae" readout_number=0.702
primary_sequence="LDSVFSKFCIGK [MSS1 C-terminal 12 aa]" system_under_test="Saccharomyces cerevisiae" readout_number=0.703
primary_sequence="ELANILESDITL [CIN1 C-terminal 12 aa]" system_under_test="Saccharomyces cerevisiae" readout_number=0.712
primary_sequence="GIDVHYVFRTYH [CIN10 C-terminal 12 aa]" system_under_test="Saccharomyces cerevisiae" readout_number=0.631
primary_sequence="KVTSANEHTSAV [PEX27 C-terminal 12 aa]" system_under_test="Saccharomyces cerevisiae" readout_number=0.697
primary_sequence="KCLDLLKTELGE [POC4 C-terminal 12 aa]" system_under_test="Saccharomyces cerevisiae" readout_number=0.693
primary_sequence="FRSQRLHMDSKP [BUD27 C-terminal 12 aa]" system_under_test="Saccharomyces cerevisiae" readout_number=0.668

Go through the list and state protein stability index for each entry.
1. TDTEAEDDESPE [SEC63 C-terminal 12 aa]
2. IKDAIKNGTGLL [MET31 C-terminal 12 aa]

Result:
1: 0.633; 2: 0.678

====

- Test system: Saccharomyces cerevisiae
- Assay Name: protein stability index of tFT-peptide fusion (C-terminal peptide) (PSI (0-1 scale)); higher = more stable (slower turnover)
- Experimental Context: genetic background: wild type; temperature: 30 C
Would you mind labelling by protein stability index? At or over 0.7 is satisfied, under is not satisfied.

Past entries and their recorded results:
primary_sequence=VKGKKREVTDPR class_assignment="not satisfied"
primary_sequence=LLTCRPPQCLLC class_assignment="not satisfied"
primary_sequence=SPASIVPTLELA class_assignment="not satisfied"
primary_sequence=VGVLRTSRASPH class_assignment="not satisfied"

Lab note: next sequence to report on.
Q: Determine whether measured protein stability index meets or exceeds 0.7 for PPPPPSHPPPLS
Result: not satisfied

====

- Test system: Saccharomyces cerevisiae
- Assay Name: protein stability index of tFT-peptide fusion (C-terminal peptide) (PSI (0-1 scale)); higher = more stable (slower turnover)
- Experimental Context: genetic background: wild type; temperature: 30 C
Would you mind labelling by protein stability index? At or over 0.7 is 1, under is -1.

primary_sequence=SLLTLVIPTLFS class_assignment=-1
primary_sequence=SGFLAKNIKQLC class_assignment=-1
primary_sequence=GMKDKSVRTIKK class_assignment=1
primary_sequence=RSVQSATSHGYQ class_assignment=1
primary_sequence=IRPNLERKIKVR class_assignment=-1

Lab note: next sequence to report on.
Q: Determine whether measured protein stability index meets or exceeds 0.7 for FFDKLEIRALVV
Result: -1
